# Measured On: T1, 4H1802-AA
# T1 chain: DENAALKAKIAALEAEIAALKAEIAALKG
# Experiment: two-hybrid library CCmax;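 also: natural log of median RNA to DNA barcode read ratio; higher means stronger binding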
# Applied Conditions: mean of both orientations
Measured Endpoint: interaction score

> print(dat)
                                     binder  measured.endpoint  value
1  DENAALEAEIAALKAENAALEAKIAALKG [4H1110-AA]  interaction score  -1.32
2  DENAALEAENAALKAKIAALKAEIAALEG [4H1257-AA]  interaction score  -1.38
3  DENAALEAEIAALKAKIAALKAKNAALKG [4H1136-AA]  interaction score  -1.42
4  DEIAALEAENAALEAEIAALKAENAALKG [4H140-AA]  interaction score  -1.67
